Below: compounds with IC50 recorded for UniProt P07949 in separate published works.

INPUT: What IC50 appears in the records for this compound with UniProt P07949? COC1(C(=O)NCc2ccc(-n3ccc(C)n3)nc2)CN(c2nc(C)cc(Nc3cc(C)[nH]n3)n2)C1
OUTPUT: < 10 nM

INPUT: Also, CCOc1cc(-c2ccc(NC(=O)Nc3ccc(OC4(C)COC4)c(C(F)(F)F)c3)cc2F)c[nH]c1=O please.
OUTPUT: < 100 nM

INPUT: Also, CCOc1cc(=O)[nH]cc1-c1ncc(NC(=O)Nc2ccc(CC(C)(C)CO)c(C(F)(F)F)c2)c(C)n1 please.
OUTPUT: < 100 nM

INPUT: Also, CC(C)(O)COc1cc(-c2cnc(N3C[C@@H]4C[C@@](C)(NC(=O)c5ncccc5Cl)C[C@@H]4C3)cn2)c2c(C#N)cnn2c1 please.
OUTPUT: ≤ 10 nM

INPUT: Also, CO[C@]1(C(=O)N[C@@H](C)c2ccc(-n3cc(F)cn3)nc2)C[C@H](c2cc(C)nc(Nc3cc(C)[nH]n3)n2)C1 please.
OUTPUT: < 1 nM

INPUT: Also, CS(=O)(=O)Nc1ccc(Cl)c(C(=O)c2c[nH]c3ncc(-c4cccc(S(C)(=O)=O)c4)cc23)c1F please.
OUTPUT: ≤ 10000 nM

INPUT: Also, Cn1cc(-c2cc(-c3cnc(N4C5CC6CC4CC(NC(=O)c4ncccc4Cl)(C6)C5)cn3)c3c(C#N)cnn3c2)cn1 please.
OUTPUT: ≤ 10 nM

INPUT: Also, Cc1cc(Nc2cc(C)[nH]n2)nc([C@H]2CC[C@H](C(=O)NCc3ccc(-n4cc(Cl)cn4)nc3)CC2)n1 please.
OUTPUT: < 10 nM

INPUT: Also, NC(=O)c1cccc(-c2ccnc3[nH]cc(C(=O)c4cc(F)ccc4F)c23)c1 please.
OUTPUT: ≤ 10000 nM

INPUT: Also, Cc1cc(Nc2cc(C)[nH]n2)nc(N2CC(F)(C(=O)N[C@@H](C)c3ccc(-n4cc(F)cn4)nc3)C2)c1 please.
OUTPUT: < 10 nM

INPUT: Also, COc1ccc(CN2CCCC(n3ccc(-c4cc(-c5cnn(C)c5)cn5ncc(C#N)c45)cc3=O)C2)cn1 (centres unmarked) please.
OUTPUT: 27.3 nM

INPUT: Also, Cc1ccc(CNC(=O)c2ccc(-c3nc(C)cc(Nc4cc(C)[nH]n4)n3)cn2)cc1 please.
OUTPUT: 10 to 100 nM

INPUT: Also, Nc1ccnc2[nH]cc(C(=O)c3ccccc3)c12 please.
OUTPUT: ≤ 10000 nM

INPUT: Also, CN(C/C=C/C(=O)N1CC[C@@H](n2nc(-c3ccc(Cl)cc3)c3c(N)ncnc32)C1)C1CCC1 please.
OUTPUT: 100 to 1000 nM

INPUT: Also, Cc1cc(Nc2cc(C)[nH]n2)nc([C@@]2(O)CC[C@H](C(=O)NCc3ccc(-n4cccn4)nc3)C2)c1 please.
OUTPUT: 10 to 100 nM

INPUT: Also, CO[C@]1(C(=O)N[C@@H](C)c2ccc(-n3cc(F)cn3)nc2)CN(c2nc(C)cc(Nc3cc(C)[nH]n3)n2)[C@H]1C please.
OUTPUT: < 10 nM

INPUT: Also, CCC1(C(=O)NCc2ccc(-n3nc(C)cc3C)nc2)CCN(c2nc(C)cc(Nc3cc(C)[nH]n3)n2)CC1 please.
OUTPUT: < 10 nM

INPUT: Also, CCOc1cc(-c2ccc(NC(=O)Nc3ccc(OC(C)C)c(C(F)F)c3)c(C)n2)c[nH]c1=O please.
OUTPUT: < 100 nM

INPUT: Also, CC(=O)NC12CC3CC(C1)N(c1cnc(-c4cc(-c5cnn(C)c5)cn5ncc(C#N)c45)cn1)C(C3)C2 please.
OUTPUT: ≤ 10 nM

INPUT: Also, COc1ccc(F)c(C(=O)c2c[nH]c3ncc(-c4cccc(/C=C/C(=O)O)c4)cc23)c1 please.
OUTPUT: ≤ 10000 nM

INPUT: Also, CCOc1cc(-c2ncc(NC(=O)Nc3ccc(Cl)c(C(F)(F)F)c3)c(C)n2)c[nH]c1=O please.
OUTPUT: < 100 nM

INPUT: Also, Cc1cccc(Cl)c1C(=O)NC[C@@H]1[C@H]2CN(c3ccc(-c4cc(-c5cnn(C)c5)cn5ncc(C#N)c45)cn3)C[C@@H]12 please.
OUTPUT: ≤ 10 nM

INPUT: Also, COc1ccc(C(=O)N2C[C@@H]3CN(c4ccc(-c5cc(-c6cnn(C)c6)cn6ncc(C#N)c56)cn4)C[C@@H]3C2)cn1 please.
OUTPUT: ≤ 10 nM

INPUT: Also, CCOc1cc(-c2ccc(NC(=O)Nc3ccc(OC4(C)CC(O)C4)c(C(F)(F)F)c3)c(F)c2)c[nH]c1=O (centres unmarked) please.
OUTPUT: < 100 nM

INPUT: Also, COC1(C(=O)NCc2ccc(N3CC[C@@H](F)C3)nc2)CN(c2nc(C)cc(Nc3cc(C)[nH]n3)n2)C1 please.
OUTPUT: > 100 nM

INPUT: Also, Cn1ccc(-c2cc(-c3ccc(N4C[C@@H]5C[C@@](C)(NC(=O)c6c(F)cccc6Cl)C[C@@H]5C4)nc3)c3c(C#N)cnn3c2)n1 please.
OUTPUT: ≤ 10 nM

INPUT: Also, NC(=O)c1cccc(-c2cnc3[nH]cc(C(=O)c4cccc(O)c4F)c3c2)c1 please.
OUTPUT: ≤ 10000 nM

INPUT: Also, O=C(c1cccc2[nH]c(-c3n[nH]c4ncc(-c5cncc6ccccc56)cc34)nc12)N1CCCCC1 please.
OUTPUT: ~100000 nM

INPUT: Also, CCCOc1cc(-c2ccc(NC(=O)Nc3ccc(OC4(C)COC4)c(C(F)(F)F)c3)c(F)c2)c[nH]c1=O please.
OUTPUT: < 100 nM

* * *

pIC50: −log10 of the molar value.
Below: compounds with pIC50 recorded for Proto-oncogene tyrosine-protein kinase receptor Ret (Homo sapiens, UniProt P07949) in separate published works.

INPUT: What value of measured pIC50 is listed for c1ccc2c(-c3cnc4[nH]nc(-c5nc6c(CN7CCCC7)cccc6[nH]5)c4c3)cncc2c1 ?
OUTPUT: < 5.00

INPUT: Also, O=C(c1cccc(Cl)c1Cl)c1c[nH]c2nccc(-c3ccsc3)c12 please.
OUTPUT: ≥ 5.00

INPUT: Also, CC(C)(O)COc1cc(-c2ccc(N3C[C@H]4C[C@@H](NC(=O)c5ncccc5Cl)C[C@H]4C3)nc2)c2c(C#N)cnn2c1 please.
OUTPUT: ≥ 8.00

INPUT: Also, COCCC1(C(=O)NCc2ccc(-n3cccn3)nc2)CCN(c2nc(C)cc(Nc3cc(C)[nH]n3)n2)CC1 please.
OUTPUT: > 8.00

INPUT: Also, O=C(c1cccc(O)c1)c1c[nH]c2ncc(Br)cc12 please.
OUTPUT: ≥ 5.00

INPUT: Also, Cn1cc(-c2cc(-c3cnc(N4C[C@@H]5CN(S(=O)(=O)c6c(F)cccc6Cl)C[C@@H]5C4)cn3)c3c(C#N)cnn3c2)cn1 please.
OUTPUT: ≥ 8.00

INPUT: Also, Cc1cc(Nc2cc(C)[nH]n2)nc(-c2cnc(C(=O)N[C@@H](C)c3ccc(-n4cccn4)nc3)c(C)c2)n1 please.
OUTPUT: > 8.00

INPUT: Also, CC1(Oc2ccc(NC(=O)Nc3ccc(-c4c[nH]c(=O)c(OC5CC5)c4)cc3F)cc2C(F)(F)F)COC1 please.
OUTPUT: > 7.00

INPUT: Also, Cc1ccccc1C(=O)c1c[nH]c2nccc(-c3ccc(C(N)=O)cc3)c12 please.
OUTPUT: ≥ 5.00

INPUT: Also, Cc1cc(Nc2cc(C)[nH]n2)nc(N2CC[C@@H](C(=O)NCc3ccc(-n4cccn4)nc3)[C@@H](O)C2)c1 please.
OUTPUT: > 8.00

INPUT: Also, COc1ccc(NC(=O)N[C@H]2[C@@H]3CN(c4ccc(-c5cc(-c6cnn(C)c6)cn6ncc(C#N)c56)cn4)C[C@@H]32)cn1 please.
OUTPUT: ≥ 8.00

INPUT: Also, CCOc1cc(-c2ncc(NC(=O)Nc3cc(C(=O)NCCN(C)C)cc(C(F)(F)F)c3)c(C)n2)c[nH]c1=O please.
OUTPUT: > 7.00

INPUT: Also, CC(C)C(O)C(=O)N1C[C@@H]2CN(c3ccc(-c4cc(-c5cnn(C)c5)cn5ncc(C#N)c45)cn3)C[C@@H]2C1 (some centres unmarked) please.
OUTPUT: ≥ 8.00

INPUT: Also, Cn1cc(-c2cc(-c3ccc(N4C[C@@H]5[C@H](CNC(=O)OC(C)(C)C)[C@@H]5C4)nc3)c3c(C#N)cnn3c2)cn1 please.
OUTPUT: ≥ 8.00

INPUT: Also, O=C(c1cccc(O)c1)c1c[nH]c2ncc(Nc3ccccc3)cc12 please.
OUTPUT: ≥ 5.00

INPUT: Also, O=C(c1ccccc1F)c1c[nH]c2nccc(-c3ccc(Cl)cc3)c12 please.
OUTPUT: ≥ 5.00

INPUT: Also, Cn1cc(-c2cc(-c3ccc(N4C[C@@H]5[C@H](C4)[C@H]5NC(=O)c4ncccc4C(F)(F)F)nc3)c3c(C#N)cnn3c2)cn1 please.
OUTPUT: ≥ 8.00

INPUT: Also, COc1cccc(C(=O)C2C=Nc3nccc(-c4cc(F)cc(F)c4)c32)c1 (centres unmarked) please.
OUTPUT: ≥ 5.00

INPUT: Also, CCOc1cc(-c2cnc(N3C[C@@H]4[C@H](C3)[C@@H]4NC(=O)c3ncccc3Cl)cn2)c2c(C#N)cnn2c1 please.
OUTPUT: < 7.00

INPUT: Also, Cc1ccc(F)cc1C(=O)c1c[nH]c2ncc(-c3ccc(Cl)cc3)cc12 please.
OUTPUT: ≥ 5.00

INPUT: Also, Cc1ccc(NC(=O)c2cccc(C(F)(F)F)c2)cc1C#Cc1cnc2c(Nc3cnn(C)c3)nccn12 please.
OUTPUT: 9.06

INPUT: Also, COc1ccc(-c2ccnc3[nH]cc(C(=O)c4ccccc4F)c23)cn1 please.
OUTPUT: ≥ 5.00

INPUT: Also, Cn1cc(-c2cc(-c3ccc(N4C[C@@H]5[C@H](C4)[C@H]5NC(=O)C(N)c4ccccc4)nc3)c3c(C#N)cnn3c2)cn1 (some centres unmarked) please.
OUTPUT: ≥ 8.00

INPUT: Also, COc1cccc(C(=O)c2c[nH]c3nccc(-c4ccc(Cl)cc4)c23)c1 please.
OUTPUT: ≥ 5.00

INPUT: Also, CCOc1nc(=O)[nH]cc1-c1ccc(NC(=O)Nc2ccc(OC3(C)COC3)c(C(F)(F)F)c2)c(F)c1 please.
OUTPUT: > 7.00

INPUT: Also, CCOc1cc(=O)[nH]cc1-c1ncc(NC(=O)Nc2ccc(C#N)c(C(F)(F)F)c2)c(C)n1 please.
OUTPUT: > 7.00

INPUT: Also, O=C(c1ccc(Cl)cc1)c1c[nH]c2ncc(-c3cccnc3)cc12 please.
OUTPUT: ≥ 5.00

INPUT: Also, CCOc1cc(-c2ncc(NC(=O)Nc3ccc(CC(C)(C)CO)c(C(F)(F)F)c3)c(C)n2)c[nH]c1=O please.
OUTPUT: > 7.00

INPUT: Also, Cc1[nH]c(=O)ccc1-c1ccc(NC(=O)Nc2ccc(OC3(C)COC3)c(C(F)(F)F)c2)c(F)c1 please.
OUTPUT: > 7.00
